All values here come from paper PMC3100585.

# Tested on: CYP3A4
# protocol-description: Midazolam pharmacokinetics
# test-settings: human, plasma, intravenous, 0.0145 mg/kg, Half-life of midazolam, median, day 1 of cycle 4
measurement-kind: half-life (h)
I only need the number, in h, no unit after it.

Ask | Report half-life for Cc1ncc2n1-c1ccc(Cl)cc1C(c1ccccc1F)=NC2
Reply | 3.08
